assay: Cytotoxicity testing in MRC-5 cells (CellTiter 96); format: cell-based; settings: human, MRC-5 cells (embryonal lung fibroblasts), 6 days incubation, read-out: % Cell viability
Where no end group is shown, it is not given here.

substance	viability at 144 h / %
MQMKKVLDS-OH [AIP-1]	100

###

experiment: in vitro; conditions: human
Where no end group is shown, it is not given here.

substance	unit label	viability at 144 h, 10 micrograms per ml
MQMKKVLDS-OH [AIP-1]	%	100

###

test: Cytotoxicity (MTS cell viability) in the HIV-1 assay; settings: human, CEM-SS cells
Where no end group is shown, it is not given here.

substance	unit label	viability at 10 micrograms per ml
MQMKKVLDS-OH [AIP-1]	%	100
